For each entry below, report its MIC value.
- Tested on: MRSA ATCC 700699
- ASSAY EXPLANATION: microbe, parasite or virus in culture
- CONDITION SET: ATCC 700699
Bridge positions count the residues as written; N and C are the ends. Square brackets hold non-standard residues; d marks the D form. Peptide text beside a SMILES is read from it. ξ: configuration not given here. dNMeF = CN[C@H](Cc1ccccc1)C(=O)O; Ile(3ξ) = CCC(C)[C@H](N)C(=O)O
Numbers only; they are read as µg/mL.

Consider CCCCCCCCCC(=O)N[C@@H](Cc1c[nH]c2ccccc12)C(=O)N[C@H](CC(N)=O)C(=O)N[C@@H](CC(=O)O)C(=O)N[C@@H]1C(=O)NCC(=O)N[C@@H](CCCN)C(=O)N[C@@H](CC(=O)O)C(=O)N[C@H](C)C(=O)N[C@@H](CC(=O)O)C(=O)NCC(=O)N[C@H](CO)C(=O)N[C@@H]([C@H](C)CC(=O)O)C(=O)N[C@@H](CC(=O)c2ccccc2N)C(=O)O[C@@H]1C [Daptomycin, reference compound] . Its measured MIC is 0.25

What the record says about CC[C@@H](C)[C@@H](NC(=O)[C@@H](CCC(N)=O)NC(=O)[C@H](CO)NC(=O)[C@@H](NC(=O)[C@@H](Cc1ccccc1)NC)[C@@H](C)CC)C(=O)N[C@H](C(=O)N[C@@H](CO)C(=O)N[C@H]1C(=O)N[C@@H](C)C(=O)N[C@@H](C)C(=O)N[C@@H]([C@@H](C)CC)C(=O)O[C@H]1C)[C@@H](C)CC : MIC is 4

The molecule identified as CC[C@@H](C)[C@@H](NC(=O)[C@@H](CCC(N)=O)NC(=O)[C@H](CO)NC(=O)[C@@H](NC(=O)[C@@H](Cc1ccccc1)NC)[C@@H](C)CC)C(=O)N[C@H](C(=O)N[C@@H](CO)C(=O)N[C@H]1C(=O)N[C@@H](C)C(=O)N[C@@H](CC(C)C)C(=O)N[C@@H]([C@@H](C)CC)C(=O)O[C@H]1C)[C@@H](C)CC registered its MIC at 0.25

Form: molecule = CCC(C)[C@@H]1NC(=O)[C@H](C)NC(=O)[C@H](NC(=O)[C@H](CO)NC(=O)[C@@H](NC(=O)[C@H](NC(=O)[C@@H](CCC(N)=O)NC(=O)[C@H](CCCNC(=N)N)NC(=O)[C@@H](NC(=O)[C@@H](Cc2ccccc2)NC)[C@@H](C)CC)[C@H](C)CC)[C@@H](C)CC)[C@H](C)OC(=O)[C@H]([C@@H](C)CC)NC1=O (stereo partly shown) [Compound 32, Arg3-Ile10-teixobactin] (H-[dNMeF]IR[dQ][dI]IS[dT]A[Ile(3ξ)]I; ester 8-C) ; MIC = 1

Record summary for CC[C@@H](C)[C@@H](NC(=O)[C@@H](CCC(N)=O)NC(=O)[C@H](CCCNC(=N)N)NC(=O)[C@@H](NC(=O)[C@@H](Cc1ccccc1)NC)[C@@H](C)CC)C(=O)N[C@H](C(=O)N[C@@H](CO)C(=O)N[C@H]1C(=O)N[C@@H](CCCNC(=N)N)C(=O)N[C@@H](CC(C)C)C(=O)N[C@@H]([C@@H](C)CC)C(=O)O[C@H]1C)[C@@H](C)CC [Compound 29, Arg3-Arg9-Leu10-teixobactin] (H-[dNMeF]IR[dQ][dI]IS[dT]RLI; ester 8-C) : reported MIC = 1

Reported MIC of CC[C@@H](C)[C@@H](NC(=O)[C@@H](CCC(N)=O)NC(=O)[C@H](CO)NC(=O)[C@@H](NC(=O)[C@@H](Cc1ccccc1)NC)[C@@H](C)CC)C(=O)N[C@H](C(=O)N[C@@H](CO)C(=O)N[C@H]1C(=O)N[C@@H](C)C(=O)N[C@@H](C(C)C)C(=O)N[C@@H]([C@@H](C)CC)C(=O)O[C@H]1C)[C@@H](C)CC : 1

Please fill in: MIC reported for CCC(C)[C@@H]1NC(=O)[C@H](C)NC(=O)[C@H](NC(=O)[C@H](CO)NC(=O)[C@@H](NC(=O)[C@H](NC(=O)[C@@H](CCCNC(=N)N)NC(=O)[C@H](CO)NC(=O)[C@@H](NC(=O)[C@@H](Cc2ccccc2)NC)[C@@H](C)CC)[C@H](C)CC)[C@@H](C)CC)[C@H](C)OC(=O)[C@H]([C@@H](C)CC)NC1=O (stereo partly shown) = 0.25

Consider CC[C@@H](C)[C@@H](NC(=O)[C@@H](CCC(N)=O)NC(=O)[C@H](CO)NC(=O)[C@@H](NC(=O)[C@@H](Cc1ccccc1)NC)[C@@H](C)CC)C(=O)N[C@H](C(=O)N[C@@H](CO)C(=O)N[C@H]1C(=O)N[C@@H](C)C(=O)N[C@@H]([C@@H](C)CC)C(=O)N[C@@H]([C@@H](C)CC)C(=O)O[C@H]1C)[C@@H](C)CC . Its measured MIC is 0.25

Just so you know, measured MIC for CCC(C)[C@@H]1NC(=O)[C@H](CCCNC(=N)N)NC(=O)[C@H](NC(=O)[C@H](CO)NC(=O)[C@@H](NC(=O)[C@H](NC(=O)[C@@H](CCC(N)=O)NC(=O)[C@H](CO)NC(=O)[C@@H](NC(=O)[C@@H](Cc2ccccc2)NC)[C@@H](C)CC)[C@H](C)CC)[C@@H](C)CC)[C@H](C)OC(=O)[C@H]([C@@H](C)CC)NC1=O (stereo partly shown) [Compound 34, Arg9-Ile10-teixobactin] (H-[dNMeF]IS[dQ][dI]IS[dT]R[Ile(3ξ)]I; ester 8-C) came out at 1

MIC reading for CC[C@@H](C)[C@@H](NC(=O)[C@@H](CCCNC(=N)N)NC(=O)[C@H](CCCNC(=N)N)NC(=O)[C@@H](NC(=O)[C@@H](Cc1ccccc1)NC)[C@@H](C)CC)C(=O)N[C@H](C(=O)N[C@@H](CO)C(=O)N[C@H]1C(=O)N[C@@H](C)C(=O)N[C@@H](CC(C)C)C(=O)N[C@@H]([C@@H](C)CC)C(=O)O[C@H]1C)[C@@H](C)CC [Compound 28, Arg3-D-Arg4-Leu10-teixobactin] (H-[dNMeF]IR[dR][dI]IS[dT]ALI; ester 8-C) : 0.5
